SUBJECT OF TEST: TDP-43 (Homo sapiens, UniProt Q13148 1-414)
Sequence (Q13148 whole entry): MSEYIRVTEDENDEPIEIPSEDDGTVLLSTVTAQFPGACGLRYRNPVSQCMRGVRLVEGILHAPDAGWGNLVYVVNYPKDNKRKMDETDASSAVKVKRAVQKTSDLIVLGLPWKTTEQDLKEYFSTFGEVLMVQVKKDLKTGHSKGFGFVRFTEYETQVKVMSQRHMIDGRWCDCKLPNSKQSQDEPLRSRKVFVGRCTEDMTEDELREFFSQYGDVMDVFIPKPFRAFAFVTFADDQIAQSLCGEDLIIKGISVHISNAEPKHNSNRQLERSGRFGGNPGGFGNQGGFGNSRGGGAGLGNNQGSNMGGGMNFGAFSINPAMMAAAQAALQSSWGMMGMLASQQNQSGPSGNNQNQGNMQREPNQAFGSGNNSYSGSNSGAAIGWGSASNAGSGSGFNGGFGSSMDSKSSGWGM
MEASUREMENT NOTES: RNA Bind-n-Seq with designed 260-mer pool; 25 mM Tris-HCl, 150 mM KCl, 3 mM MgCl2, BSA (printed 500 mg/mL), 20 units/mL SUPERase IN; pH not stated; 500 nM RNA pool, 1 h, 4 C; TDP-43 5, 50, 500 nM; high values mean tight binding
MEASUREMENT CONDITIONS: protein: recombinant; tags: SBP (GST cleaved off with PreScission; pGEX-GST-SBP)
Whole data set: some 9,900 sequences, median “r (bound/input frequency ratio)” near 0.7, cut for the highest 2% near 6.5. The full list was thinned out, with the highest values kept by preference.
MEASUREMENT KIND: binding signal

Q: binding signal for ENSMUSG00000058297.298|Spock2|53:58 (ssRNA) RNA: GGGAGUUCUACAGUCCGACGAUCGCUUCGAUAUCCGCAUGCUAAGAGAAUACCCGAGGGCCACCCUGAUGCCCAGGAAGAGUGAGGGCAGCCCCCACACACGUGGAAGAGGCUGGGCAGCUAGCUACUGGGGACCUUGUGCUGAGGCUUCCAGGACAAAGCCCCAGUCUGGCUCUCCCCCAGCCUCUCAGGGGCACUGGCUGGUCACAUCCACUGAGUAUUGAUCGGUUGGACUUUAGGGAAGAGCCUCCUCCUUCCCAUUCCUUUCUGCCACCCUGGAAUGGCCACCUUAAUCGUCAUCUCCCUCUUGCGGUCGCACUAGUGUGGAAUUCUCGGGUGUCAAGG ?
Result: 2.36 R (bound/input frequency ratio)
